Molecular target: Luciferin 4-monooxygenase (Photinus pyralis)
Sequence (P08659 whole entry): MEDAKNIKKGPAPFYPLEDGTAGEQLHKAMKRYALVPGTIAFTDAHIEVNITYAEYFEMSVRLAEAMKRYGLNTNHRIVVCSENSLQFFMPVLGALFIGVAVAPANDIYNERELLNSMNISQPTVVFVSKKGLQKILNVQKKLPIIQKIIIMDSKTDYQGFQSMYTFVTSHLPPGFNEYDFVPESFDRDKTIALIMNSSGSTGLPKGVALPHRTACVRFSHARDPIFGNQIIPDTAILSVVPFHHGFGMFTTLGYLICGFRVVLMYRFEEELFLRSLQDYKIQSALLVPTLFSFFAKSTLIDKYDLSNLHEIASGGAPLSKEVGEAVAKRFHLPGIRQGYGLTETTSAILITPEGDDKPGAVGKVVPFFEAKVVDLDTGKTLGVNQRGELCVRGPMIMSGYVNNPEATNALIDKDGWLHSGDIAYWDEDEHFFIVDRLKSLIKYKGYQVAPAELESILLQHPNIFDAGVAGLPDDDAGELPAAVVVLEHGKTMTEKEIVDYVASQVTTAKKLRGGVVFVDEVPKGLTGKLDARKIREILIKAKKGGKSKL
Assay: firefly luciferase enzyme inhibitors, dose response, biochemical, luminescence (AID 1891)
The source made the active and inactive calls.
Value Type: EC50

>  <Compound>
O=C(O)c1ccc(COc2cccc(CO)c2)cc1

>  <System Tested>
Luciferin 4-monooxygenase (Photinus pyralis)

>  <Value Type>
EC50

>  <Observed Value>
44.4 µM (active)

$$$$
>  <Compound>
CCN(CC)C(=O)c1ccc(NC(=O)Nc2ccccc2F)cc1

>  <System Tested>
Luciferin 4-monooxygenase (Photinus pyralis)

>  <Value Type>
EC50

>  <Observed Value>
0.225 µM (active)

$$$$
>  <Compound>
COc1ccccc1C(=O)NCCC(=O)Nc1ncccc1O

>  <System Tested>
Luciferin 4-monooxygenase (Photinus pyralis)

>  <Value Type>
EC50

>  <Observed Value>
> 112 µM (not active)

$$$$
>  <Compound>
COc1ccc(CCNCc2ccc(OCC(=O)N3CCCCC3)c(OC)c2)cc1OC

>  <System Tested>
Luciferin 4-monooxygenase (Photinus pyralis)

>  <Value Type>
EC50

>  <Observed Value>
> 112 µM (not active)

$$$$
>  <Compound>
Cn1cc(S(=O)(=O)N2CCOCC2)cc1C(=O)Nc1ccc(Cl)cc1

>  <System Tested>
Luciferin 4-monooxygenase (Photinus pyralis)

>  <Value Type>
EC50

>  <Observed Value>
> 112 µM (not active)

$$$$
>  <Compound>
COc1ccc(/C=C/CN2CCCC(CO)(Cc3cccc(Cl)c3)C2)cc1 (stereo unspecified)

>  <System Tested>
Luciferin 4-monooxygenase (Photinus pyralis)

>  <Value Type>
EC50

>  <Observed Value>
> 112 µM (not active)

$$$$

---

Target: Short transient receptor potential channel 4 (Mus musculus, UniProt Q9QUQ5)
Sequence (Q9QUQ5 whole entry): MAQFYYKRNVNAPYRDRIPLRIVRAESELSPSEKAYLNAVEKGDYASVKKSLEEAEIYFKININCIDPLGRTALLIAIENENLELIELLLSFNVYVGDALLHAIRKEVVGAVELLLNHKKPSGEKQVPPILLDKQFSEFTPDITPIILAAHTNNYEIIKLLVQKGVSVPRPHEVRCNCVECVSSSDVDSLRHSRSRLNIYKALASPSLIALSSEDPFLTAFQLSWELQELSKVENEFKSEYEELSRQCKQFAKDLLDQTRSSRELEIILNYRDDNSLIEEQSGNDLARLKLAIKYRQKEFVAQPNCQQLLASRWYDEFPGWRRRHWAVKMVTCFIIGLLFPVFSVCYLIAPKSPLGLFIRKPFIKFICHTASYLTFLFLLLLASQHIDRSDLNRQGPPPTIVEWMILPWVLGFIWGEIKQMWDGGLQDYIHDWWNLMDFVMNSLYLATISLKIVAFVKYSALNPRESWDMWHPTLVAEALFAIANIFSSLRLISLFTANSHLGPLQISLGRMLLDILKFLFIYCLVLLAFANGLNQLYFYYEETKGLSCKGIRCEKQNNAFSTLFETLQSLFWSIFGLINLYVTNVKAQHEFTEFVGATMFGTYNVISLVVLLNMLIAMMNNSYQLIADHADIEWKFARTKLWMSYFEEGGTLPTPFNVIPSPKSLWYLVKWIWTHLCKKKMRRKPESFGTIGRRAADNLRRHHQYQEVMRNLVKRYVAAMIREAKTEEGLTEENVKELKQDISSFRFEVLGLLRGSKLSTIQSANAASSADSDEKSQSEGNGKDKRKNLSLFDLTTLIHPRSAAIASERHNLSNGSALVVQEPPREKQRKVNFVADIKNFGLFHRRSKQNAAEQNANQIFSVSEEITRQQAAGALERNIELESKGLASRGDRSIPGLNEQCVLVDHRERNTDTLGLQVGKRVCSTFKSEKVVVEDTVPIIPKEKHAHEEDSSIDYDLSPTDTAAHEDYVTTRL
Assay: mouse TRPC4 channel activators, dose response, cell-based, HEK293 TRPC4/mu-opioid, Fluo-4 calcium (AID 434937)
Type: functional
Where a name gives a salt, the structure may show the parent alone. Calls of active or inactive are those of the source.

>  <Molecule>
COC(=O)c1ccc(N2CCN(C)CC2)c(NC(=O)c2cccs2)c1

>  <EC50>
2.11 µM (active)

$$$$
>  <Molecule>
Cc1cccc(NC(S)=NCC(c2cccnc2)N(C)C)c1C (stereo unspecified)

>  <EC50>
0.0067 µM (active)

$$$$
>  <Molecule>
CC(C)(C)C(=O)NC(=S)NNC(=O)c1sc2ccccc2c1Cl

>  <EC50>
0.267 µM (active)

$$$$
>  <Molecule>
CNC[C@H](CC1CCCCC1)NC[C@H](Cc1ccccc1)NCCC12CC3CC(CC(C3)C1)C2

>  <EC50>
8.41 µM (active)

$$$$
>  <Molecule>
CCN1CCN(c2c(Cl)cccc2NC(=O)c2ccc3nsnc3c2)CC1

>  <EC50>
0.668 µM (active)

$$$$
>  <Molecule>
COC(=O)C1=CCCN(C)C1 [ARECOLINE HYDROBROMIDE]

>  <EC50>
6.68 µM (active)

$$$$

---

Target: Protein Wnt-3a (Mus musculus)
Sequence (P27467 whole entry): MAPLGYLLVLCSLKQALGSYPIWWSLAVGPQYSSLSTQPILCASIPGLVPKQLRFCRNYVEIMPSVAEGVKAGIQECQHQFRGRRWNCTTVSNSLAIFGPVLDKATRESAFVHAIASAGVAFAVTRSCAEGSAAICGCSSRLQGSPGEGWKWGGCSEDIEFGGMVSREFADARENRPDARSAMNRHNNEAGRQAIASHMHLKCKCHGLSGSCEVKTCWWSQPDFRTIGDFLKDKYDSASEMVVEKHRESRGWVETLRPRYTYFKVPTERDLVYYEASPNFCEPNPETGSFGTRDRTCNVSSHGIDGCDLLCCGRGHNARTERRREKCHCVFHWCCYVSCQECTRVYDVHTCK
Assay: Wnt3a-driven reporter signaling inhibition, dose response, selectivity assay for Gli-SUFU antagonist project, Wnt-LIGHT cells, luminescence (AID 651570);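 further: Wnt-LIGHT reporter cells stimulated with conditioned medium from Wnt3a-producing cells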
Format: functional
Conditions: read-out: IC50_Mean
Active and inactive are the calls of the source.
Outcome codes: 1.0 = active, 0.0 = inactive

>  <Compound>
COc1cccc(CN(C)C(=O)c2cc(COc3ccc4ncccc4c3)on2)c1

>  <Group Label>
1.0

$$$$
>  <Compound>
O=C(c1cccc(S(=O)(=O)N2CCN(c3ccccc3)CC2)c1)N1CCCC(C(F)(F)F)C1 (centres undefined)

>  <Group Label>
0.0

$$$$
>  <Compound>
CCOC(=O)N1CCN(C(=O)c2cc(COc3ccc4ncccc4c3)on2)CC1

>  <Group Label>
1.0

$$$$
>  <Compound>
Cc1c(C(C)C)c(=O)n(-c2ccc(S(=O)(=O)NC3CCCCC3)cc2)n1C

>  <Group Label>
1.0

$$$$

---

Test: control 3'UTR Renilla luciferase suppression, dose response, counter-screen for Shn3 inhibitor project, cell-based, Clone20-Shn3RL, cherry-picked (AID 624133)
Type: functional
Active and inactive are the calls of the source.
Value Type: AC50

>  <Compound>
Cc1c(C(C)C)c(=O)n(-c2ccc(S(=O)(=O)NC3CCCCC3)cc2)n1C

>  <Value Type>
AC50

>  <Observed Value>
1.76 µM (active)

$$$$
>  <Compound>
CNC[C@H](CC1CCCCC1)NC[C@H](Cc1ccccc1)NCCC12CC3CC(CC(C3)C1)C2

>  <Value Type>
AC50

>  <Observed Value>
7.45 µM (active)

$$$$
>  <Compound>
CCC(=O)OCCNc1cc(Sc2nccn2C)c2nonc2c1[N+](=O)[O-]

>  <Value Type>
AC50

>  <Observed Value>
4.16 µM (active)

$$$$
>  <Compound>
COc1cc(OC)c(OC)cc1CNC(=O)c1cccc(S(=O)(=O)N2CCc3ccccc3C2)c1

>  <Value Type>
AC50

>  <Observed Value>
24 µM (active)

$$$$
>  <Compound>
COc1cccc(CN(C)C(=O)c2cc(COc3ccc4ncccc4c3)on2)c1

>  <Value Type>
AC50

>  <Observed Value>
2.1 µM (active)

$$$$
>  <Compound>
O=C(Nc1ccc(N2CCN(C(=O)c3ccco3)CC2)c(Cl)c1)c1cc2ccccc2o1

>  <Value Type>
AC50

>  <Observed Value>
17.6 µM (active)

$$$$
>  <Compound>
CCCC(=O)NC(c1ccccc1)c1ccc2cccnc2c1O (configuration not stated)

>  <Value Type>
AC50

>  <Observed Value>
1.89 µM (active)

$$$$

---

Molecular target: Heat shock factor protein 1 (Mus musculus, UniProt P38532)
Sequence (P38532 whole entry): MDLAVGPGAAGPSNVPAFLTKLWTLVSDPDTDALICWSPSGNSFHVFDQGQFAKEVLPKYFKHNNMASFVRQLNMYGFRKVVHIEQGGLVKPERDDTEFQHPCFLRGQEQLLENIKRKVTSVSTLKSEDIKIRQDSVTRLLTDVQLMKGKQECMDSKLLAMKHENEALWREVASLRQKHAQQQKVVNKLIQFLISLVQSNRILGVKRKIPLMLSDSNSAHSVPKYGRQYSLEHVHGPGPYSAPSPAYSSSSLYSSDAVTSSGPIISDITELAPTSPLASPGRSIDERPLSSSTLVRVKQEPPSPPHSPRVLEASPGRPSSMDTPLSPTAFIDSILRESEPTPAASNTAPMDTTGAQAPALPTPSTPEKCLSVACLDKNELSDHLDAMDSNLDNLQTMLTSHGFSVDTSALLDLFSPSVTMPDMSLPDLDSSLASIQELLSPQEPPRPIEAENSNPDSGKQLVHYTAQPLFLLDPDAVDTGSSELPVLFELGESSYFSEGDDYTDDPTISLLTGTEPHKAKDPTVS
Assay: HSF1 potentiators in luciferase reporter cells, confirmation, cell-based, NIH3T3, luminescence, dose retest (AID 435004);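 further: stress induced by proteasome inhibitor MG132 added 30 min after compound; luciferase reporter driven by HSF1 response element in NIH3T3 cells; actives raise luminescence as potentiators of the MG132 stress response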
Format: functional
Calls of active or inactive are those of the source.
Possible outcomes: YES = active, NO = inactive

>  <Compound>
COc1ccc(C)cc1Cn1c(S(C)(=O)=O)nc2ccccc21

>  <Group Label>
NO

$$$$
>  <Compound>
O=C(O)c1cc([N+](=O)[O-])c(NCCC2=CCCCC2)c([N+](=O)[O-])c1

>  <Group Label>
NO

$$$$
>  <Compound>
CC/C(NCc1ccco1)=C1/C(=O)NC(=O)N(C2CCCCC2)C1=O

>  <Group Label>
NO

$$$$
>  <Compound>
O=S(=O)(NC(=Nc1cccc2ccccc12)c1ccccc1)c1ccc(F)cc1

>  <Group Label>
NO

$$$$
>  <Compound>
N#Cc1ccccc1COC(=O)c1cc(=O)c2ccccc2o1

>  <Group Label>
NO

$$$$
>  <Compound>
CCC(=O)OCCNc1cc(Sc2nccn2C)c2nonc2c1[N+](=O)[O-]

>  <Group Label>
YES

$$$$
>  <Compound>
Cc1ccc(S(=O)(=O)c2c(N)n(CCC(C)C)c3nc4ccccc4nc23)cc1

>  <Group Label>
NO

$$$$
>  <Compound>
COc1ccc(N=C(S)Nc2ccccc2SC)c(OC)c1

>  <Group Label>
NO

$$$$
>  <Compound>
Cc1cccc(N2C(=N)SCC2=O)c1C

>  <Group Label>
NO

$$$$
>  <Compound>
O=C(COC(=O)C1CSC2(c3ccc(F)cc3)CCC(=O)N12)NC(=O)NC1CCCC1 (stereo unspecified)

>  <Group Label>
NO

$$$$
>  <Compound>
Cn1c(=O)c2c(nc(NCCO)n2C)n(C)c1=O

>  <Group Label>
NO

$$$$

---

Target: UniProt:Q8TDD5
Sequence (Q8TDD5 whole entry): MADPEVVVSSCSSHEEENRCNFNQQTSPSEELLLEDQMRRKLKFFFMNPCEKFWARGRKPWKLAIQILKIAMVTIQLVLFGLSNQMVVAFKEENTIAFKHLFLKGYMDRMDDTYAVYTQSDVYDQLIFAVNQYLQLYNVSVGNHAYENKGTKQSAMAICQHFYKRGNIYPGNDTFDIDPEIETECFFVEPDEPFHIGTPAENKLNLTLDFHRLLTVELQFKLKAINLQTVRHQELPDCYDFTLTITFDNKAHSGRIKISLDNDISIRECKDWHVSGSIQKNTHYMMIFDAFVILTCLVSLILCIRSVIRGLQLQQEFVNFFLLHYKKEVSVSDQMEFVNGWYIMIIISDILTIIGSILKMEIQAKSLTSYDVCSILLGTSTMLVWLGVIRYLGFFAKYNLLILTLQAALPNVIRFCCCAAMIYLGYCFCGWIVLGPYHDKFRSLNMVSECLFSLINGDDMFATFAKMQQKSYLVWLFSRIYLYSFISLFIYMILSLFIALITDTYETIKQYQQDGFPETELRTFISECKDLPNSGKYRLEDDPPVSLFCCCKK
Experiment: Dose response cell-based high-throughput screening assay for agonists of the transient receptor potential channel ML3 (TRPML3). [Related pubchem assays: 1526, 1424, 1448 ]
Format: functional
Structures can show the parent of a compound that is named as a salt. Active and inactive are the calls of the source.
Measured EC50 of individual entries

>  <Compound>
COC(=O)C1=CCCN(C)C1 [ARECOLINE HYDROBROMIDE]

>  <EC50>
2.26 µM (active)

$$$$
>  <Compound>
C=C(C)Cn1c(C)cc(C)c(S(=O)(=O)c2ccccc2C)c1=O

>  <EC50>
5.9 µM (active)

$$$$
>  <Compound>
Cc1ccc(S(=O)(=O)Nc2ccccc2-c2ccccc2)cc1

>  <EC50>
1.59 µM (active)

$$$$
>  <Compound>
O=C1c2ccccc2CCCC12N=NCC2c1cccc2ccccc12 (stereo not given)

>  <EC50>
3.31 µM (active)

$$$$
>  <Compound>
CN(C1CCCCC1)S(=O)(=O)c1cccc(C#N)c1

>  <EC50>
3.58 µM (active)

$$$$
